Test: BET inhibitor-based combinations targeting novel dependencies in MECOM-rearranged (r) AML: HNT-34 cell line (AID 2202234); note: nearly all actives have a fitted effect of over 35% in size; note: potency is the fitted concentration of half-maximal effect
Conditions: HNT-34 AML viability, CellTiter-Glo luminescence, 48 h; series mostly up to 46 µM
Results filed as inconclusive are left out. Calls of active or inactive are those of the source. Calls come from the whole dose curve; as a rule, active = well fitted inhibition curve with a large enough effect; inconclusive = small, poorly fitted or top-dose-only effect; inactive = no such curve, though single readings can be large or run the other way.
Measured Endpoint: Potency

// known answers, use as guide
C=CCN1C[C@H](C(=O)N(CCCN(C)C)C(=O)NCC)CC2c3cccc4[nH]cc(c34)C[C@H]21 (stereo partly drawn): inactive
NC(=S)N/N=C/c1ncccc1N: 16.6 µM (active)
NC(=O)c1cnc2[nH]ccc2c1NC1C2CC3C[C@H]1CC(O)(C3)C2 (stereo partly drawn): 8.33 µM (active)
CCN(C)S(=O)(=O)Nc1ccc(F)c(C(=O)c2c[nH]c3ncc(-c4cnc(C5CC5)nc4)cc23)c1F: 4.17 µM (active)
COC1=C(OC)C(=O)C(C/C=C(\C)CC/C=C(\C)CC/C=C(\C)CC/C=C(/C)CC/C=C(\C)CC/C=C(\C)CC/C=C(\C)CC/C=C(\C)CC/C=C(\C)CCC=C(C)C)=C(C)C1=O: inactive

Tell me measured Potency for `COc1ncc(-c2ccc3nccc(-c4ccnnc4)c3c2)cc1NS(=O)(=O)c1ccc(F)cc1F` please.
0.263 µM (active)

Tell me measured Potency for `Cc1[nH]c(/C=C2\C(=O)Nc3ccc(F)cc32)c(C)c1C(=O)NC[C@H](O)CN1CCOCC1` please.
3.72 µM (active)

Tell me measured Potency for `COc1cc(NS(C)(=O)=O)ccc1Nc1c2ccccc2nc2ccccc12` please.
0.372 µM (active)

Where do these numbers come from? They come from PubChem BioAssay (NCATS).
